Ref: patent US20250215072A1

Biological target: hLTBP3-proTGFβ1 as produced in the cell-based activation assay (human, UniProt P01137 30-390; Q9NS15 44-1303)
Sequence (P01137 30-390 limits assumed, chain 1 of 2): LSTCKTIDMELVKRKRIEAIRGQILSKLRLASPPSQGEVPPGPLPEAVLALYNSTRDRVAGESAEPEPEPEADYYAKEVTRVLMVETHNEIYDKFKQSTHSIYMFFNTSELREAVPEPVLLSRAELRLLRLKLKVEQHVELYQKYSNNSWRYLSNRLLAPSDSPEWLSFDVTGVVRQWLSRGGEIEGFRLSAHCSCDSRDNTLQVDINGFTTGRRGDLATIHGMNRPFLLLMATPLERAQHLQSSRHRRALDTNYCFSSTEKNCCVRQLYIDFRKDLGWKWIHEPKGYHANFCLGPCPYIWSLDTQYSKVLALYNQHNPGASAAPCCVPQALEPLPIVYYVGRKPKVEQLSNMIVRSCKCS
Sequence (Q9NS15 44-1303 limits assumed, chain 2 of 2): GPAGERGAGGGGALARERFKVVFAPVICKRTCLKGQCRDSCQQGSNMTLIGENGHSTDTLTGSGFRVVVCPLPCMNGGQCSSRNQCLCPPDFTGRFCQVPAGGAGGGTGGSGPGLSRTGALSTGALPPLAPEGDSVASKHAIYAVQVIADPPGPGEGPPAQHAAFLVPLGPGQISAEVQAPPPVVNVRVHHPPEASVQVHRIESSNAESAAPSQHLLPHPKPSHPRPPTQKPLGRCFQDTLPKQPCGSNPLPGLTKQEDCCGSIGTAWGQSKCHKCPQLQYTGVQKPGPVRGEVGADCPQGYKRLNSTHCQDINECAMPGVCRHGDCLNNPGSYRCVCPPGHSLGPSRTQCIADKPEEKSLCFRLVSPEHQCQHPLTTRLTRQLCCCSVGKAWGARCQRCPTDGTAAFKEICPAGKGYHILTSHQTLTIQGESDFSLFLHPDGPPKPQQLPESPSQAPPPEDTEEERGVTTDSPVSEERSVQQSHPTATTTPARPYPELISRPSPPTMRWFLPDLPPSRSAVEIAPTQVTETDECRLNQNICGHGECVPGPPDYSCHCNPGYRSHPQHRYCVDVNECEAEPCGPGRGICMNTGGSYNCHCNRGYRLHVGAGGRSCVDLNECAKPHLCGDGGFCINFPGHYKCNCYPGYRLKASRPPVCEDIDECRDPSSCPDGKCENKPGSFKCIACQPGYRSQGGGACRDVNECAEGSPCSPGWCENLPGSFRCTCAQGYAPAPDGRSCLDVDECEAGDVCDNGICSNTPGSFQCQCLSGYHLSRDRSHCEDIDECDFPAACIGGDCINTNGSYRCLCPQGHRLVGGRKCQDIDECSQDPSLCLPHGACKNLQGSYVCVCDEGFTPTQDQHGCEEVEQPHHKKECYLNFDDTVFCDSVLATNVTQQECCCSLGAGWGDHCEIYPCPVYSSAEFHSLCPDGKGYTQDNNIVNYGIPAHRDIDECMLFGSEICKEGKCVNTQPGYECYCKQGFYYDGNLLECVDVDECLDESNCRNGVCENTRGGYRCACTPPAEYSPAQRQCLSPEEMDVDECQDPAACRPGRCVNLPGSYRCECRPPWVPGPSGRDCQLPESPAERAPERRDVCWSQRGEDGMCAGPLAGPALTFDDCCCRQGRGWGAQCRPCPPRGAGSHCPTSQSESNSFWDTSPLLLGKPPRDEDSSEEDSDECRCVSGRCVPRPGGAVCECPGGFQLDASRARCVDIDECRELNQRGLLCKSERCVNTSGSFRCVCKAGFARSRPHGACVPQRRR
Assay: cell-based or functional assay
Item-by-item account of IC50, reporter cell assay
Your answer should be a plain number; it is taken to be in nM.

Solved cases (4 shown):
BINDER	IC50, reporter cell assay (nM)
Ab2 (antibody, V domains shown) VH: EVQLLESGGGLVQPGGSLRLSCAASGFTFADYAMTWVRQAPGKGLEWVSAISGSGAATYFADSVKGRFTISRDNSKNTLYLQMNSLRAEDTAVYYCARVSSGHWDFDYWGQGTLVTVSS VL: DIQLTQSPSSLSASVGDRVTITCRASQSISSYLNWYQQKPGKAPKLLIYAASNLQSGVPSRFSGSGSGTDFTLTISSLQPEDFATYYCQQTYTVPLTFGGGTKVEIKR	0.867
Ab5 (antibody, V domains shown) VH: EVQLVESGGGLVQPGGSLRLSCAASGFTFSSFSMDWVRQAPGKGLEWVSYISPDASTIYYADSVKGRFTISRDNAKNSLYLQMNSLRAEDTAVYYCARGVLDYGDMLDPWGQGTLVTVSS VL: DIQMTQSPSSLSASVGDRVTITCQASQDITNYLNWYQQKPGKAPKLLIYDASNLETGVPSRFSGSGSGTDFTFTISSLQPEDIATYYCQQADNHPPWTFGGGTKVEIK	1
Ab19 (antibody, IgG4, V domains shown) VH: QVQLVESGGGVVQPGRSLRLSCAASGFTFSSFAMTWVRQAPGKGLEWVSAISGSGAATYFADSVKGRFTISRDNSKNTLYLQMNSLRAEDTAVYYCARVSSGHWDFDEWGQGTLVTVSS VL: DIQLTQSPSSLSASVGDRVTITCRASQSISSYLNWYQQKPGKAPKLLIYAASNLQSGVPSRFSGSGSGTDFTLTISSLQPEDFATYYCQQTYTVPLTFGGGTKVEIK	1.6
Ab1 (antibody, V domains shown) VH: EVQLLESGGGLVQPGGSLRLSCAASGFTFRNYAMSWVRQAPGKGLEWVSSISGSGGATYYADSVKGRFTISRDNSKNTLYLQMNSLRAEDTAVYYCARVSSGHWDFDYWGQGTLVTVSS VL: DIQLTQSPSSLSASVGDRVTITCQASQDISNFLNWYQQKPGKAPKLLIYDASNLETGVPSRFSGSGSGTDFTFTISSLQPEDIATYYCQQVFNPPLTFGGGTKVEIK	2.71

Suppose we examine the binder Ab6 (antibody, V domains shown) VH: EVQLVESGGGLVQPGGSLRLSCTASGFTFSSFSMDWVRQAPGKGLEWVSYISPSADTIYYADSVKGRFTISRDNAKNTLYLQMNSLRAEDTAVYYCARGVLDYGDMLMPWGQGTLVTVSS VL: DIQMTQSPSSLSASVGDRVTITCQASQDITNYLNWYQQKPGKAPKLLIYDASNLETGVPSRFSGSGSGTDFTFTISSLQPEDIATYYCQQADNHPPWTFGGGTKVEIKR ; what IC50, reporter cell assay value has been reported?
0.821
